meta.source: patent US10336697B2

measurement_target: Bet BRD4 full length bromo-domain protein (Homo sapiens, UniProt O60885)
assay_protocol: Bet bromodomain TR-FRET assay (displacement of acetyl histone peptide)
Format: binding
measurement_conditions: IC50, Bet BRD4 full length bromodomain protein, 300 nM acetyl histone peptide substrate
experimental_endpoint: IC50

In: Record COc1ccccc1S(=O)(=O)Nc1cc(OC(=O)N2CCN(C)CC2)c2c(c1)C1(CCC1)C(=O)N2 [Compound 169] : what is its IC50 with Bet BRD4 full length bromo-domain protein (Homo sapiens, UniProt O60885)?
Out: < 0.6 µM

----------
measurement_target: Bet BRD4 full length bromo-domain protein (Homo sapiens)
assay_protocol: Bet bromodomain TR-FRET assay (displacement of acetyl histone peptide)
Assay type: binding
measurement_conditions: Bet BRD4 full length bromodomain protein, 300 nM acetyl histone peptide substrate, read-out: IC50
pIC50: −log10 of the molar value.
experimental_endpoint: pIC50

In: Any idea what pIC50 was measured for CN1CCC(N(C)C(=O)c2cc(NS(=O)(=O)c3ccc(F)cc3F)cc3c2NC(=O)C32CCC2)CC1 ?
Out: < 6.00

In: Same lookup for O=C1Nc2c(OC3CCCNC3)cc(NS(=O)(=O)c3ccc(Cl)cc3F)cc2C12CCC2 (stereo not shown) , please.
Out: > 6.22

In: Same lookup for O=C1Nc2c(OC3CCS(=O)(=O)CC3)cc(NS(=O)(=O)c3ccc(Cl)cc3F)cc2C12CCC2 , please.
Out: > 6.22

In: Same lookup for COC(=O)c1ccc(S(=O)(=O)Nc2cc(C(=O)NC3CCN(C)CC3)c3c(c2)C2(CCC2)C(=O)N3)c(F)c1 , please.
Out: < 6.00

----------
measurement_target: Bet BRD4 full length bromo-domain protein (Homo sapiens, UniProt O60885)
assay_protocol: Bet bromodomain TR-FRET assay (displacement of acetyl histone peptide)
Assay type: binding
measurement_conditions: Bet BRD4 full length bromodomain protein, 300 nM acetyl histone peptide substrate, read-out: IC50
pIC50: −log10 of the molar value.
Please provide measured pIC50 for the entries that follow.

In: Any idea what pIC50 was measured for COc1ccccc1S(=O)(=O)Nc1cc(C(C)c2ccccc2)c2c(c1)C1(CCC1)C(=O)N2 (single isomer, unassigned) [Compound 115] ?
Out: 6.00 to 6.22

In: Same lookup for COc1ccccc1S(=O)(=O)Nc1cc(OC(C)c2cccnc2)c2c(c1)C1(CCC1)C(=O)N2 (single isomer, unassigned) , please.
Out: > 6.22

In: Same lookup for CN1CCCC(Nc2cc(NS(=O)(=O)c3ccc(F)cc3F)cc3c2NC(=O)C32CCC2)C1 (stereo not shown) [Compound 16] , please.
Out: > 6.22

In: Same lookup for COc1ccccc1S(=O)(=O)Nc1cc(NC2CCN(C)CC2F)c2c(c1)C1(CCC1)C(=O)N2 (stereo not shown) , please.
Out: > 6.22

In: Same lookup for CN1CCC(NC(=O)c2cc(NS(=O)(=O)c3ccc(C#N)cc3F)cc3c2NC(=O)C32CCC2)CC1 , please.
Out: < 6.00

In: Same lookup for O=C(NC1CCNCC1)c1cc(NS(=O)(=O)c2ccc(F)cc2F)cc2c1NC(=O)C21CCC1 , please.
Out: > 6.22

In: Same lookup for O=C1Nc2c(NCc3cccnc3)cc(NS(=O)(=O)c3ccc(F)cc3F)cc2C12CCC2 , please.
Out: > 6.22
